tested on: TMD-8 cell p-IF4E; assay: p-eIF4E Signaling Cellular Assay (CisBio HTRF) in TMD-8 cells; assay type: cell-based; conditions: Homo sapiens, TMD8, 40 min, 40 min treatment
pIC50: −log10 of the molar value.
property.name: pIC50

Identify pIC50 associated with the compound Cc1cc(Nc2cc(Nc3ccc(N4CCOCC4)cn3)ncn2)[n+]([O-])c2c1C(=O)NC21CCCCC1 [Compound XXIX-AAJ] 8.00 to 10.00

Tell me measured pIC50 for Cc1ccc(Nc2cc(Nc3cc(C)c4c([n+]3[O-])C3(CCCCC3)NC4=O)ncn2)nc1 [Compound XXIX-AAA] please. 8.00 to 10.00

Entry COc1c(N)ncnc1Nc1cc2c(s1)C(=O)NC21CCCCC1 [Compound X-C] needs its pIC50 filled in; supply it. 7.00 to 8.00

Please supply the value of reported pIC50 for the item Cc1cc(Nc2cc(Nc3ncc(F)cc3F)ncn2)[n+]([O-])c2c1C(=O)NC21CCCCC1 [Compound XXIX-AM] 7.00 to 8.00

---
Identify the reported pIC50 for the following entry. COc1c(N)ncnc1Nc1nc2c(s1)C(=O)NC21CCCCC1 [Compound XXVIII-G] 7.00 to 8.00

Identify measured pIC50 corresponding to Cc1cc(Nc2cc(N)ncn2)[n+]([O-])c2c1C(=O)NC21CCCCC1 [Compound XXIX] 7.00 to 8.00

Indicate its recorded pIC50; the compound in question is O=C1NC2(CCCCC2)c2cc(Nc3ncnc4[nH]cnc34)sc21 [Compound XVII] 6.00 to 7.00

Give pIC50 for the following compound: O=C1NC2(CCCCC2)c2cc(Nc3cc(N[C@H]4CCCOC4)ncn3)sc21 [Compound XXIV-A] 6.00 to 7.00

Consider the compound Cc1cc(Nc2cc(Nc3ccc(N4CCNCC4)cn3)ncn2)[n+]([O-])c2c1C(=O)NC21CCCCC1 [Compound XXIX-AAL] and give its recorded pIC50. 8.00 to 10.00

Look up and state reported pIC50 for Cc1ccnc(Nc2cc(Nc3cc(C)c4c([n+]3[O-])C3(CCCCC3)NC4=O)ncn2)c1 [Compound XXIX-AAI] 8.00 to 10.00

Data origin: patent US20240092799A1
